These measurements were taken from ChEMBL document CHEMBL1201862.

- System: HT-29
- Assay Name: NCI tumour cell line growth inhibition, 48 h
Calls of active or inactive are those of the source. Cut-off read from the data, not from the text of the source: active = GI50 up to about 1.1 µM and inactive = higher.
Labels: active, inactive

Compound	Discrete Label
O=c1[nH]c(=O)n(C2OC(CO)C(O)C2O)cc1OCC(F)(F)F (stereo not given)	inactive
CCOC(=O)Cn1c(=O)c(C)cn(COCCO)c1=O	inactive
N#CC(C(=O)CCC(=O)Nc1ccc(Cl)c(Cl)c1)c1ccc(Cl)cc1 (stereo not given)	inactive
CCN(CC)CC(C(=O)Nc1c(C)cccc1C)/C(C)=N\NC(=O)c1ccncc1 (stereo not given)	inactive
COc1cc(C(c2cc3c(cc2O)OCO3)N2CCCCC2)cc(OC)c1OC (stereo not given)	inactive
CC(C)(O)C(O)COc1c2c(cc3oc(=O)ccc13)OCO2 (stereo not given)	inactive
CCc1cccc(NC(=O)c2cc(/C=C/c3ccccc3)nc(S)n2)c1	inactive
Nc1ccc(-c2nc3cc(F)ccc3s2)cc1Cl	active
O=C1C2CCC(C2)C12CC1(c3ccccc3)C(=O)c3ccccc3N1O2 (stereo not given)	inactive
NS(=O)(=O)c1ccccc1C(=O)N/N=C(\c1nc2ccc([N+](=O)[O-])cc2[nH]c1=O)C(O)c1ccc([N+](=O)[O-])cc1 (stereo not given)	inactive

----------
- System: LOX IMVI
- Assay Name: NCI tumour cell line growth inhibition, 48 h
The source made the active and inactive calls. No stated cut-off is given here; in the data, active = GI50 up to about 1.1 µM and inactive = higher.
Measure Name: GI50

Compound	Measure Name	Result Value
O=C1C2c3[nH]c4ccccc4c3C3CCCCCCC3C2C(=O)N1c1ccccc1 (stereo not drawn)	GI50	5 µM (inactive)
O=C(O)/C=C/C(=O)Nc1cccc2c1-c1ccccc1C2=O	GI50	8.91 µM (inactive)
COc1ccc(COCCOCc2nc(C#N)c(N)o2)cc1	GI50	> 100 µM (inactive)
Nc1ccccc1.O=C(O)C(C(F)(F)F)C(F)(F)F	GI50	> 100 µM (inactive)
CCOC(=O)C1=C(C)N(NC(N)=O)C2(N)N(NC(N)=O)C(C)=C(C(=O)OCC)C12C#N (stereo not drawn)	GI50	> 100 µM (inactive)
NC(=O)c1cc2ccccc2o/c1=N/O	GI50	> 100 µM (inactive)
CCOC(=O)C(C(CC(=O)OC)NC(=O)OCc1ccccc1)C1(C)OCCO1 (stereo not drawn)	GI50	> 100 µM (inactive)
O=C(OCC1CC(C2(O)CCCCC2)C(=O)O1)c1ccccc1 (stereo not drawn)	GI50	> 100 µM (inactive)

----------
- Tested on: MOLT-4
- Assay Name: NCI tumour cell line growth inhibition, 48 h
Calls of active or inactive are those of the source. Cut-off read from the data, not from the text of the source: active = GI50 up to about 1.1 µM and inactive = higher. Non-standard residues stand in square brackets, D forms with d. Residues, ends and D or L forms follow the SMILES beside them. ξ: configuration not given here. ξLac(3-iPr) = CC(C)CC(O)C(=O)O; NMeV = CN[CH](C(=O)O)C(C)C; NMeA = CN[CH](C)C(=O)O; βAla = NCCC(=O)O
Labels: class 1 = active, class 0 = inactive

Molecule	Discrete Label
CCCCc1c2c(c(C)c3c1C(=O)OC3)Oc1ccccc1O2	class 1
CC1Cc2cc(O)c(O)cc2-c2cc(O)c(O)cc2CC1C (stereo not given)	class 0
[N-]=[N+]=Nc1ccc2c(c1)Sc1ccccc1N2CCCCCl	class 0
COc1ccc(/N=N/C(=NNC(=O)c2ccc(C)cc2)c2ccc(N(C)C)cc2)cc1	class 0
CN(C)c1ccc(/C=N/c2ccc(-c3nc4ccccc4[nH]3)cc2)cc1	class 0
CCOC(=O)NC(Nc1ccc(S(=O)(=O)Nc2nc(C)cc(C)n2)cc1)(C(=O)OCC)C(F)(F)F (stereo not given)	class 0
Clc1c2nc3ccccc3c-2[nH]c2ccccc12	class 0
COC(=O)CC(=O)OC	class 0
CCOC(=O)c1[nH]c2c(OC)n[n+]([O-])cc2c1[N+](=O)[O-]	class 0
CCOC(=O)C1C(c2ccccc2)C2(C#N)C(=N)OC1(C)C2(C#N)C#N (stereo not given)	class 0
Cc1ccc2nc(-c3ccc(NC(=O)c4ccc(N)cc4)c(S(=O)(=O)O)c3)sc2c1	class 0
CC(=O)Nc1ccc(-c2nnc(SCC(=O)Nc3cccc(Cl)c3)o2)cc1	class 0
COC(=O)c1nc(NC#N)nc(O)c1C	class 0
O=[N+]([O-])c1ccc2nc3ccccc3cc2c1	class 1
Cc1ccc2c(ccc(/C=C\c3cc(C)c4cccnc4c3O)[n+]2C)c1	class 1
COc1ccc(CC2OC3(CCCCC3)CC3CCCCN32)cc1 (stereo not given)	class 0
COc1ccc(C(O)/C(=C/n2ccnc2)c2ccccc2)cc1OC (stereo not given)	class 0
CCOC(=O)c1ccc(C)c(/N=N/N(C)C)c1	class 0
C1=C[C@]2(CCC13OCCO3)COc1ccccc12	class 0
Cc1ccc(C)c(N2C(=O)C(=O)c3c(C)ccc(C)c32)c1	class 0
Clc1ccc(SCCCCCCCCCCSc2ccc(Cl)cc2)cc1	class 0
N#CC1=C(S)N(C2OC(CO)C(O)C(O)C2O)C(c2ccccc2)=CC1c1ccco1 (stereo not given)	class 0
CCOP(=O)(OCC)/C(=C\n1c(=S)[nH]c2cc(C)ccc21)C(=O)OC	class 0
O=C(O)CN(CC(=O)O)c1ccccc1	class 0
O=C(N[C@@H](c1ccccc1)[C@@H](O)C(=O)OCc1ccc([N+](=O)[O-])cc1)c1ccccc1	class 0
Oc1cc(-c2ccc3c(c2)OCO3)nc2cc3c(cc12)OCO3	class 0
O=c1c(-c2ccccc2Cl)coc2cc(F)ccc12	class 0
Cc1ccc2c(c1)NC(=O)CC(c1ccccc1)=N2	class 0
O=C(CC1(O)C(=O)Nc2ccccc21)c1ccncc1 (stereo not given)	class 0
CC(C)(C)c1cc(OCc2nnc3sc(S)nn23)c(Cl)cc1OCc1nnc2sc(S)nn12	class 0
N=C(N)NNC(=O)C(=O)O	class 0
O=C1c2cccc3cc([N+](=O)[O-])cc(c23)C(=O)N1c1ccc(OCCN2CCCC2)cc1	class 0
CCOc1ccc(NC(=O)C2=C(C)NC(C)=C(C(=O)Nc3ccc(OCC)cc3)C2c2ccc([N+](=O)[O-])cc2)cc1	class 0
Nc1n/c(=N\c2ccccc2)ss1	class 0
CCC(C)C1NC(=O)C2CCCN2C(=O)C(CC(C)C)OC(=O)CCNC(=O)C(C)N(C)C(=O)C(C(C)C)N(C)C1=O (stereo not given) (cyclo([ξLac(3-iPr)]PI[NMeV][NMeA][βAla]); configuration not given here)	class 0

----------
- Tested on: SR
- Assay Name: NCI tumour cell line growth inhibition, 48 h
The source made the active and inactive calls. Rule as the data show it: active = GI50 up to about 1.1 µM and inactive = higher.
Labels: active, inactive

Molecule	Discrete Label
Cc1ccc(C2NC(=N)NC3=C2CCOc2c3ccc3ccccc23)cc1 (centres undefined)	active
Cc1cc(C#N)c[n+](C)c1	inactive
O=C1CCCC2=C1CC1=C(CCCC1=O)N2c1ccccc1C(=O)O	inactive
CCCCCCCCCCCCCCCCCCNc1ccn(C2OC(COP(=O)(O)OC3CC(n4cc(F)c(=O)[nH]c4=O)OC3COP(=O)(O)OCC3OC(n4ccc(N)nc4=O)C(O)C3O)C(O)C2O)c(=O)n1 (centres undefined)	active

----------
- Test system: HOP-62
- Assay Name: NCI tumour cell line growth inhibition, 48 h
The source made the active and inactive calls. Cut-off read from the data, not from the text of the source: active = GI50 up to about 1.1 µM and inactive = higher.

Compound	GI50
COC(=O)/C=C\C(C#N)(C#N)/N=C/c1cccc(OC)c1	> 42.7 µM (inactive)
CC/C=C/C(/C=C/C[C@]1(CC)C[C@H](CC)[C@H](CC(=O)O)OO1)CC (stereo not given in full)	1.58 µM (inactive)
CCOC(=O)Nn1cnnc1Cc1ccccc1	> 100 µM (inactive)
CCOC(=O)NC(Nc1ccc(S(=O)(=O)Nc2nc(C)cc(C)n2)cc1)(C(=O)OCC)C(F)(F)F (stereo not given)	> 100 µM (inactive)
COc1cccc(/N=N/C(=N\NC(=O)c2ccc(C)cc2)c2ccc(N(CCC#N)CCC#N)cc2C)c1	72.8 µM (inactive)

----------
- System: SNB-75
- Assay Name: NCI tumour cell line growth inhibition, 48 h
Calls of active or inactive are those of the source. Rule as the data show it: active = GI50 up to about 1.1 µM and inactive = higher.
Labels: YES for active, NO for inactive

Compound	Discrete Label
O=P1(c2ccccc2)c2ccccc2-c2ccccc21	NO
C/C(=N\Nc1nc2ccccc2s1)c1ccc2ccccc2n1	NO
CC(=O)N1N=C(c2ccc3ccccc3c2O)CC1C(=O)c1ccco1 (configuration not stated)	NO
CNC(=O)O/N=C1\N(C)CN(c2ccccc2)C12CCN(CCCC(=O)c1ccc(F)cc1)CC2	YES
O=c1c(O)c(-c2cc(O)c(O)c(O)c2)oc2cc(O)cc(O)c12	NO
[N-]=[N+]=Nc1ccc2c(c1)Sc1ccccc1N2CCCCCl	NO
Cc1ccc(C(=O)NCCN(C)C)c2nc3ccccc3cc12	NO
O=C(c1ccccc1)C1S(=O)(=O)OCCOS1(=O)=O	NO
O=C(O)c1cc(NCc2cc(O)ccc2O)ccc1O	NO
O=C(O)CN(CC(=O)O)c1ccccc1	NO
COc1cc(-c2coc3c(OC)c(OC4OC(COC5OC(C)C(O)C(O)C5O)C(O)C(O)C4O)c(OC)c(O)c3c2=O)cc(C)c1O (configuration not stated)	NO
CCN1CCCC(NCc2c3ccccc3c(CNC3CCCN(CC)C3)c3ccccc23)C1 (configuration not stated)	NO
